- target_entity: T1, B7H3 on B7H3-positive human tumour cells (A498, MCF-7, Caki-2, 786-0) (human, UniProt Q5ZPR3 29-534)
- T1 sequence (looked up): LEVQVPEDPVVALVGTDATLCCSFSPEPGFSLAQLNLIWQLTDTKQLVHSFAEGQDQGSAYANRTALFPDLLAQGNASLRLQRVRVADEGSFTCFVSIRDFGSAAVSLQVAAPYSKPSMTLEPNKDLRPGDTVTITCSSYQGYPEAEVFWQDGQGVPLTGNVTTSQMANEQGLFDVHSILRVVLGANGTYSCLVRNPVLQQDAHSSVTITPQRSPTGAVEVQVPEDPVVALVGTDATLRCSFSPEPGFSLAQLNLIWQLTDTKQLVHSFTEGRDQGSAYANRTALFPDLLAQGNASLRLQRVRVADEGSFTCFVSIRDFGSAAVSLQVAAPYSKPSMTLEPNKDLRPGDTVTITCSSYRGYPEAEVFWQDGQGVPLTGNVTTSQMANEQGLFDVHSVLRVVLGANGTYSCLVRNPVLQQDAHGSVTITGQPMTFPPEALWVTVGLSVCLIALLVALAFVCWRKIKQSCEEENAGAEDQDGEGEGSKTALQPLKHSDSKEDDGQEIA
- protocol: cell-based or functional assay
binders and their reported IC50 [M] CTG, MCF-7 cells (B7H3-positive)
metric_name: IC50 [M] CTG, MCF-7 cells (B7H3-positive) (M)

Example 259L1: anti-B7H3 AK1A (TPP-3803) coupled with Intermediate F259 (antibody, human IgG1, kappa, V domains shown, KSP inhibitor-linker (Intermediate F259) on cysteine residues of the partially reduced antibody, sites not given; drug/mAb ratio 3.0) VH: QVKLQQSGAELVKPGASVKLSCKASGYTFTNYDINWVRQRPEQGLEWIGWIFPGDGSTQYNEKFKGKATLTTDTSSSTAYMQLSRLTSEDSAVYFCARQTTATWFAYWGQGTTVTVSS VL: DIELTQSPTTLSVTPGDRVSLSCRASQSISDYLHWYQQKSHESPRLLIKYASQSISGIPSRFSGSGSGSDFTLSINSVEPEDVGVYYCQNGHSFPLTFGAGTKLELKR :: 4.57e-09
Example 257L1: anti-B7H3 AK1A (TPP-3803) coupled with Intermediate F257 (antibody, human IgG1, kappa, V domains shown, KSP inhibitor-linker (Intermediate F257) on cysteine residues of the partially reduced antibody, sites not given; drug/mAb ratio 2.4) VH: QVKLQQSGAELVKPGASVKLSCKASGYTFTNYDINWVRQRPEQGLEWIGWIFPGDGSTQYNEKFKGKATLTTDTSSSTAYMQLSRLTSEDSAVYFCARQTTATWFAYWGQGTTVTVSS VL: DIELTQSPTTLSVTPGDRVSLSCRASQSISDYLHWYQQKSHESPRLLIKYASQSISGIPSRFSGSGSGSDFTLSINSVEPEDVGVYYCQNGHSFPLTFGAGTKLELKR :: 4.49e-10
Example 194L2: anti-B7H3 AK1B (TPP-5706) coupled with Intermediate F194 (antibody, human IgG1, kappa, V domains shown, KSP inhibitor-linker (Intermediate F194) on lysine residues, sites not given; drug/mAb ratio 2.9) VH: QVQLQQPGAELVKPGASVKMSCKASGYTFTIYNVHWIKQTPGQGLEWMGTIFPGNGDTSYNQKFKDKATLTTDKSSKTAYMQLNSLTSEDSAVYYCARWDDGNVGFAHWGQGTLVTVSA VL: DIQMTQSPASLSASVGETVTITCRASENINNYLTWFQQKQGKSPQLLVYHAKTLAEGVPSRFSGSGSGTQFSLKINSLQPEDFGSYYCQHHYGTPPTFGGGTKLEIKR :: 2.08e-10

Ref: patent US20180185510A1
